System: Crude diglycosidase
Experiment: Examination of temperature in the conversion into isoflavone aglycons by diglycosidase using soybean materials
Assay type: biochemical, Penicillium multicolor IAM7153
Conditions: 65° C., heat treatment of enzyme no, reaction time 1 h
Procedure: Into 400 μL of 20 mM acetate buffer of pH 4.0 was suspended 50 mg of each of various soybean materials (roasted soy flour (manufactured by Fuji Shokuryo K.K.), soymilk (manufactured by Gitoh Shokuhin K.K.), defatted soybean (manufactured by Fuji Seiyu K.K.), concentrated soybean protein (manufactured by Fuji Seiyu K.K.)), whereby a substrate solution was prepared. Crude diglycosidase was diluted with 20 mM acetate buffer of pH 4.0 to be the glycosidase activity of 1.88 AU/mL. […]
Decomposition efficiency of genistin family in defatted soybean by entry:
Give me the value, and tack the unit on after it.

Record excerpt, results attached:
{"mol smiles": "O=c1c(-c2ccc(O)cc2)coc2cc(O[C@@H]3O[C@H](CO)[C@@H](O)[C@H](O)[C@H]3O)cc(O)c12", "measured": "0.0%"}
{"mol smiles": "O=c1c(-c2ccc(O)cc2)coc2cc(O)cc(O)c12", "measured": "49.9%"}
{"mol smiles": "CC(=O)OC[C@H]1O[C@@H](Oc2cc(O)c3c(=O)c(-c4ccc(O)cc4)coc3c2)[C@H](O)[C@@H](O)[C@@H]1O", "measured": "1.2%"}

Now for a further molecule.
Lookup result for "O=C(O)CC(=O)OC[C@H]1O[C@@H](Oc2cc(O)c3c(=O)c(-c4ccc(O)cc4)coc3c2)[C@H](O)[C@@H](O)[C@@H]1O" ; measured Decomposition efficiency of genistin family in defatted soybean: 48.9%

---

System: Crude diglycosidase
Experiment: Examination of substrate concentration in the conversion into isoflavone aglycons by diglycosidase using soybean materials
Type: biochemical, Penicillium multicolor IAM7153
Details: substrate concentration 2%, heat treatment of enzyme no, reaction time 6 h
Protocol: Into 20 mM acetate buffer of pH 4.0 was suspended 0.1 g, 0.25 g, 0.5 g, 1.0 g, or 1.5 g of each of various soybean materials (roasted soy flour (manufactured by Fuji Shokuryo K.K.), soymilk (manufactured by Gitoh Shokuhin K.K.), defatted soybean (manufactured by Fuji Seiyu K.K.), concentrated soybean protein (manufactured by Fuji Seiyu K.K.)). The pH of the suspension was measured and the liquid volume was adjusted to 4.5 mL while the pH was adjusted to 4.0 with 1N hydrochloric acid. […]
Item-by-item account of Decomposition efficiency of genistin family in defatted soybean
Write the value as a bare number.

{"mol smiles": "O=C(O)CC(=O)OC[C@H]1O[C@@H](Oc2cc(O)c3c(=O)c(-c4ccc(O)cc4)coc3c2)[C@H](O)[C@@H](O)[C@@H]1O", "measured": 11.4}

For "O=c1c(-c2ccc(O)cc2)coc2cc(O)cc(O)c12" the molecule record lists Decomposition efficiency of genistin family in defatted soybean as 88.6

---

tested on: Crude diglycosidase; test: Examination of pH in the conversion into isoflavone aglycons by diglycosidase using soybean materials; assay type: biochemical, Penicillium multicolor IAM7153; conditions: pH6.5, heat treatment of enzyme yes, reaction time 6 h, 55° C.
measured metric: Decomposition efficiency of glycitin family in roasted soy flour
Could you keep your reply to the number by itself?

Here's what some known entries look like.
{"compound": "COc1cc2c(=O)c(-c3ccc(O)cc3)coc2cc1O[C@@H]1O[C@H](CO)[C@@H](O)[C@H](O)[C@H]1O [glycitin]", "measured": 54.8}
{"compound": "COc1cc2c(=O)c(-c3ccc(O)cc3)coc2cc1O[C@@H]1O[C@H](COC(C)=O)[C@@H](O)[C@H](O)[C@H]1O [acetylglycitin, 6″-O-acetylglycitin]", "measured": 35.4}

Attention now shifts to the item below.
// COc1cc2c(=O)c(-c3ccc(O)cc3)coc2cc1O [glycitein] : Decomposition efficiency of glycitin family in roasted soy flour value = 9.8
